Hello, the source for this data is PubChem BioAssay (NCI), in case you need it.

Test system: T-47D breast
Assay: NCI-60 one-dose screen, 48 h (100 = growth as untreated, 0 = no growth, -100 = all killed)
Conditions: 10 µM unless noted
Description: Growth inhibition of the T-47D human tumor cell line is measured as a screen for anti-cancer activity. Cells are grown in 96 well plates and exposed to the test compound for 48 hours. Compounds are tested at a single concentration, which is 10^-5 M for most compounds. The reported endpoint is percent growth (GI% or GIPRCNT), where numbers from 0 - 100% represent growth inhibition, and numbers from -100% - 0 represent cell death. For example, a value of 40 represents 60% growth inhibition. […]
This is part of a sample that, as a whole, favours compounds with a hit. Of some 83,000 tested, about 20% had one in any assay.
param class (str): category from growth; see ranges bin 0 (below 10%), bin 1 (10% to below 90%), bin 2 (90% or more)

Observe how each entry below is paired with its result.
[
  {
    "COMPOUND": "O=C(CCl)NCCNc1nccc(Nc2ccc(S(=O)(=O)Nc3ccccn3)cc2)n1",
    "ANSWER_LABEL": "bin 0"
  },
  {
    "COMPOUND": "O=C(CN1CCOCC1)Nc1ccc(-c2nc3ccccc3s2)cc1",
    "ANSWER_LABEL": "bin 2"
  },
  {
    "COMPOUND": "CN(C)C1CCC(NC2=CC(=O)C=CC2=O)CC1 (stereo not given)",
    "ANSWER_LABEL": "bin 2"
  },
  {
    "COMPOUND": "COc1ccc(OC)c(NC(=O)c2cc(S(=O)(=O)N3CCc4ccccc43)ccc2OC)c1",
    "ANSWER_LABEL": "bin 2"
  }
]

input: Kindly state the category for this compound: `NC(=O)c1cccc(N2Cc3ccccc3OC3=C2C(=O)c2c(O)ccc(O)c2C3=O)c1`
output: bin 0

input: Kindly state the category for this compound: `CCNc1nc(N2CC(=O)Nc3cc(OC)ccc32)c2ccccc2n1`
output: bin 1

input: Kindly state the category for this compound: `COc1ccccc1OCC(=O)Nc1sc2c(c1C(N)=O)CCC2`
output: bin 1

input: Kindly state the category for this compound: `CCC(=O)Oc1ccc2c(c1)CC[C@@H]1[C@@H]2CC[C@]2(C)C[C@H](OC(=O)CC)C[C@@H]12`
output: bin 1

input: Kindly state the category for this compound: CC1CCc2c(sc(NC(=O)CSc3nnc4ccccn34)c2C(N)=O)C1 (stereo not given)
output: bin 2

input: Kindly state the category for this compound: `COc1ccc(-c2nc3sccn3c2-c2ccnc(NCCNS(=O)(=O)c3ccc(C(F)(F)F)cc3)n2)cc1`
output: bin 0

---

Tested on: PC-3 prostate
Assay: NCI-60 one-dose screen, 48 h
Settings: 10 µM unless noted
About 83,000 compounds went through this panel and 20% of them were active in at least one assay; those are over-represented in the sample as a whole. The source made the active and inactive calls. The calls were made as follows: active = growth percent below 10; inactive = the rest.
Please answer using one outcome listed in 1.0 for active, 0.0 for inactive

Observe how each entry below is paired with its result.
[
  {
    "MOLECULE": "O=C(CN1CCOCC1)Nc1ccc(-c2nc3ccccc3s2)cc1",
    "SYSTEM_TESTED": "PC-3 prostate",
    "ANSWER_LABEL": 0.0
  },
  {
    "MOLECULE": "O=C1N=C(c2c(-c3[nH]c(=O)c4ccc(Br)cc4c3O)c(O)c3ccccc3c2O)C(=O)c2cc(Br)ccc21",
    "SYSTEM_TESTED": "PC-3 prostate",
    "ANSWER_LABEL": 1.0
  },
  {
    "MOLECULE": "N#CC1=C(N)OC2=C(C(=O)CCC2)C1c1ccco1 (stereo not given)",
    "SYSTEM_TESTED": "PC-3 prostate",
    "ANSWER_LABEL": 0.0
  },
  {
    "MOLECULE": "COc1ccc(OC)c(/C=C2\\Oc3cc(OCCN4CCCC4)ccc3C2=O)c1",
    "SYSTEM_TESTED": "PC-3 prostate",
    "ANSWER_LABEL": 0.0
  },
  {
    "MOLECULE": "COc1cc2nc(N3CCC[C@@H](NC4=CC(=O)c5ccccc5C4=O)C3)nc(N)c2cc1OC",
    "SYSTEM_TESTED": "PC-3 prostate",
    "ANSWER_LABEL": 0.0
  }
]

input: Query: recorded result category for `O=C(CN1CCN(c2cc3c(cc2F)c(=O)c(C(=O)O)cn3C2CC2)CC1)Nc1ccc(C(=O)/C=C/c2ccccc2)cc1` in this test
output: 0.0

input: Query: recorded result category for `O=C(O)c1cccc([N+](=O)[O-])c1/C=C/c1ccccc1` in this test
output: 0.0

input: Query: recorded result category for O=C(c1ccncc1)N1N=C(c2ccc(Cl)cc2)CC1c1c[nH]c2ccccc12 (stereo not given) in this test
output: 0.0

input: Query: recorded result category for `COc1cc(-n2nc(C(=O)Nc3ccc(C(=O)O)cc3)nc2-c2ccccc2)cc(OC)c1OC` in this test
output: 0.0

input: Query: recorded result category for Cc1cc(Cl)ccc1OC(C)C(=O)Nc1nnc(C2CC2)s1 (stereo not given) in this test
output: 0.0

---

System: KM12 colon
Experiment: NCI-60 one-dose screen, 48 h
Settings: 10 µM unless noted
Method: Growth inhibition of the KM12 human tumor cell line is measured as a screen for anti-cancer activity. Cells are grown in 96 well plates and exposed to the test compound for 48 hours. Compounds are tested at a single concentration, which is 10^-5 M for most compounds. The reported endpoint is percent growth (GI% or GIPRCNT), where numbers from 0 - 100% represent growth inhibition, and numbers from -100% - 0 represent cell death. For example, a value of 40 represents 60% growth inhibition. […]
The panel holds about 83,000 compounds, 20% with a hit somewhere; the sample as a whole holds those more often. Calls of active or inactive are those of the source. Rule for the calls: active = growth percent below 10; inactive = the rest.
Please answer using one outcome listed in Y (active), N (inactive)

input: Query: recorded result category for `COc1ccc(-c2nc3sccn3c2-c2ccnc(NCCCNS(=O)(=O)c3ccc(C)cc3)n2)cc1` in this test
output: N

---

# reported growth; entries follow
System: LOX IMVI melanoma
Experiment: NCI-60 one-dose screen, 48 h (100 = growth as untreated, 0 = no growth, -100 = all killed)
Settings: 10 µM unless noted
The panel holds about 83,000 compounds, 20% with a hit somewhere; the sample as a whole holds those more often.
Provide the reading as a plain figure in %.

[
  {
    "COMPOUND": "COC1=CC(c2ccc[nH]2)=N/C1=C\\c1[nH]c(C)c(C(=O)CCCCC(=O)NCc2ccccc2)c1C",
    "UNIT_TAG": "%",
    "growth": -56.3
  },
  {
    "COMPOUND": "CCCCCCCCCCCCOB(OCCCCCCCCCCCC)OCCCCCCCCCCCC",
    "UNIT_TAG": "%",
    "growth": 89.7
  },
  {
    "COMPOUND": "Cc1cc(NC(=O)COC(=O)c2sc3cc(F)ccc3c2Cl)no1",
    "UNIT_TAG": "%",
    "growth": 103
  },
  {
    "COMPOUND": "Cc1cc(Nc2nc(-c3ccc(F)cc3)nc3ccccc23)n[nH]1",
    "UNIT_TAG": "%",
    "growth": 32.6
  },
  {
    "COMPOUND": "O=C1Nc2cc(Cl)ccc2Oc2cc(Oc3ccccc3)ccc21",
    "UNIT_TAG": "%",
    "growth": 51.5
  },
  {
    "COMPOUND": "C#CCC1(c2ccc(F)c(F)c2)NS(=O)(=O)c2ccccc21 (stereo unspecified)",
    "UNIT_TAG": "%",
    "growth": 98
  }
]

input: Dear colleague, I am looking for the recorded growth of the following compound: `O=C1c2ccccc2C(=O)c2c(N=Nc3sc(=O)[nH]c3S)cccc21`
output: 84.9

input: Dear colleague, I am looking for the recorded growth of the following compound: `NS(=O)(=O)c1ccc(CN2C(=O)c3cccc4cccc(c34)C2=O)cc1`
output: 96.2

---

System: NCI-H226 lung
Experiment: NCI-60 one-dose screen, 48 h
Settings: 10 µM unless noted
Procedure: Growth inhibition of the NCI-H226 human Non-Small Cell Lung tumor cell line is measured as a screen for anti-cancer activity. Cells are grown in 96 well plates and exposed to the test compound for 48 hours. Compounds are tested at a single concentration, which is 10^-5 M for most compounds. The reported endpoint is percent growth (GI% or GIPRCNT), where numbers from 0 - 100% represent growth inhibition, and numbers from -100% - 0 represent cell death. […]
Compounds without any hit were thinned out: in the full panel of roughly 83,000, 20% have a hit. Activity calls are given as the source filed them. Rule for the calls: active = growth percent below 10; inactive = the rest.
Please answer using one outcome listed in True = active, False = inactive

Observe how each entry below is paired with its result.
[
  {
    "COMPOUND": "COc1ccc(C(=O)c2cc(OC)c(OC)c(OC)c2)cc1/C=C/C(=O)c1ccc(O)cc1",
    "SYSTEM_TESTED": "NCI-H226 lung",
    "ANSWER_LABEL": "False"
  },
  {
    "COMPOUND": "CC1CCc2c(sc(NC(=O)CSc3nnc4ccccn34)c2C(N)=O)C1 (stereo not given)",
    "SYSTEM_TESTED": "NCI-H226 lung",
    "ANSWER_LABEL": "False"
  }
]

input: Query: recorded result category for `C=C1C(=O)O[C@H]2[C@H]1CC/C(Cn1cc(-c3ccc(N)cc3)nn1)=C\CC[C@@]1(C)O[C@@H]21` in this test
output: True

input: Query: recorded result category for `Cc1ccc2nc(-c3c(CCCO)noc3N)[nH]c(=O)c2c1` in this test
output: False

input: Query: recorded result category for CCCC(C(=O)OCC)C(C)OC(=O)OCC (stereo not given) in this test
output: False

input: Query: recorded result category for `Cc1cccc2cc(/C=C/C(=O)/C=C/c3ccc(Cl)cc3)c(=O)[nH]c12` in this test
output: False

input: Query: recorded result category for CCOC(=O)c1ccccc1NC(c1ccccc1)c1ccc2cccnc2c1O (stereo not given) in this test
output: True

input: Query: recorded result category for `COc1ccc(/C=C/C(=O)/C=C/c2cc3ccc(Cl)cc3[nH]c2=O)cc1` in this test
output: False

input: Query: recorded result category for `CCN1C(=O)N[C@H]2[C@@H]3NC(=O)c4ccc(Cl)n4[C@@H]3C[C@]21O` in this test
output: True

input: Query: recorded result category for `O=C1CCCCN1CCCCC#Cc1ccccc1C#Cc1ccc([N+](=O)[O-])cc1` in this test
output: False

input: Query: recorded result category for `COc1ccc(/C(=N/O)c2cc(OC)c(OC)c(OC)c2)c(OC)c1N` in this test
output: False

input: Query: recorded result category for `O=C(/C=C/CN1CCOCC1)Nc1cc2c(Nc3cccc(Cl)c3F)ncnc2cc1OCCOC(F)F` in this test
output: False

input: Query: recorded result category for `C[N+](C)(C)c1ccc(CC2c3ccccc3-c3ccccc32)cc1` in this test
output: False

input: Query: recorded result category for `CN1C(=O)[C@H]2c3c1cccc3[C@@]13NC(=O)O[C@H]1[C@H](CCC3(C)C)C2(C)C` in this test
output: False

input: Query: recorded result category for `COc1ccc(C(=O)N2CCN(C(=O)c3cc(OC)c(OC)c(OC)c3)CC2)cc1OCCCCOc1cc2c(cc1OC)C(=O)N1CCC[C@H]1C=N2` in this test
output: False

input: Query: recorded result category for `N#Cc1c(NC(=O)c2ccc([N+](=O)[O-])o2)[n+]([O-])c2cc(F)c(F)cc2[n+]1[O-]` in this test
output: False

input: Query: recorded result category for COc1cc(C2CC(c3c(C)[n+]([O-])c4ccccc4[n+]3[O-])=NN2)cc(OC)c1OC (stereo not given) in this test
output: False

input: Query: recorded result category for COc1cc(C2C=C(C)N=C3SC(C)=NN32)cc(OC)c1OC (stereo not given) in this test
output: False

input: Query: recorded result category for CCn1cc(C2NC(=O)c3cc(F)ccc3N2)c2cccc(Cl)c21 (stereo not given) in this test
output: False

input: Query: recorded result category for CCC1CCc2nc3sc(C(=O)Nc4ccccc4F)c(N)c3cc2C1 (stereo not given) in this test
output: False

input: Query: recorded result category for CN=S(=O)(NC(=O)c1ccc(Cl)cc1Cl)c1ccc(Br)s1 (stereo not given) in this test
output: False

input: Query: recorded result category for `CC(=O)Nc1nc(C(=O)N2N=C(C)/C(=C/c3ccccc3)C2=O)cs1` in this test
output: False

input: Query: recorded result category for `c1ccc2c(c1)Oc1ccccc1C2C1c2ccccc2Oc2ccccc21` in this test
output: False
